system-tested: T1, human IL-25 expressed with a C-terminal myc-myc-hexahistidine tag (human)
T1 chain: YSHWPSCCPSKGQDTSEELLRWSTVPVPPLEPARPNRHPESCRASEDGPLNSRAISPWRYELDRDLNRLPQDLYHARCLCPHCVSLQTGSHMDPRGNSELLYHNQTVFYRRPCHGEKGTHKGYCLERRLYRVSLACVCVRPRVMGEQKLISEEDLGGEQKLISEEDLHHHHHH
protocol-notes: cell-based or functional assay
measurement-label: IC50, luciferase reporter cells, 5 pM hIL-25-MMH (M)
Quick reminder: number only, in M, skip the unit.

* H4H10897P (antibody, human IgG4, V domains shown, H4H prefix = human IgG4 Fc) VH: QVQLQESGPGLVKPSETLSLTCTVSGGSISDYYWSWIRQPPGKGLEWIGHIYYSGSTNHNPSLKSRVAISVDTSKNQFSLRLYSVTAADTAVYYCARDGYSSSSGFYYFGMDVWGQGTTVTVSS VL: DIQLTQSPSFLSASVGDRVTITCWASQDINSYLAWYQQKPGKAPKLLIFAASTLQGGVPSRFSGSGSGTEFTLTISSLQPEDFATYYCQHLSSFPPTFGQGTRLEIK | 4.6e-10
* H4H10863P (antibody, human IgG4, V domains shown, H4H prefix = human IgG4 Fc) VH: QVQLVQSGAEVKKPGASVKVSCKASGYTFSSYGISWVRQAPGQGLEWMGWISAYNDNTQYAQKFQGRVTMTTDTSTSTAYMELRSLRSDDTAVYYCARVPLQWFGESFDHWGQGTLVTVSS VL: DIQMTQSPSSLSASVGDRVTITCRASQDINNYLNWFQQKPGKAPKLLIFSTSSLQSGVPSRFSGSGSGTDFTLTISSLQSEDFATYYCQQTFITPLTFGGGTKVEIK | 6.9e-10

Please turn your attention to the following entry.
q: State the recorded IC50, luciferase reporter cells, 5 pM hIL-25-MMH for this entry: H4H10883P (antibody, human IgG4, V domains shown, H4H prefix = human IgG4 Fc) VH: QVQLQESGPGLVKSSETLSLTCTVSGGSISSYYWSWIRQPPGKGLEWIGFIYYSGSTNYNPSLKSRVTFSVDTSKNHFSLKLNSVTATDTAVYYCARHYFDSGTYELGPFDYWGQGTLVTVSS VL: DIVMTQSPDSLAVSLGERATINCKSSQNILLTSSNKNYLTWYQQKPGQPPKLLIYWASIRESGVPDRFSGSGSGTDFTLTISSLQAEDVALYFCQQYYITPFTFGPGTKVDIK
a: 1.4e-10
